Just for reference, ChEMBL document CHEMBL1152423 is where these values come from.

# system-under-test: Glutamate NMDA receptor
# experiment: Displacement of [3H]MDL-105519 from glycine binding site of NMDA receptor in rat cortical membrane by liquid scintillation counting
# Format: cell membranes
pKi by entry:
Scale: negative log10 of molar concentration, which is what pKi denotes.

| test-smiles | pKi |
| --- | --- |
| CCc1cc(Cl)cc2[nH]c(=O)c(-c3cccc(NC)c3)c(O)c12 | 7.93 |
| CN(C)c1ccc(Cc2cccc(-c3c(O)c4ccc(Cl)cc4[nH]c3=O)c2)cc1 | 7.65 |
| CNc1ccc(Cc2cccc(-c3c(O)c4ccc(Cl)cc4[nH]c3=O)c2)cc1 | 7.93 |

Query COc1ccc(Nc2cccc(-c3c(O)c4ccc(Cl)cc4[nH]c3=O)c2)cc1 on Glutamate NMDA receptor; pKi returned: 7.63

Query CNc1cc(Cl)cc2[nH]c(=O)c(-c3cccc(OC)c3)c(O)c12 on Glutamate NMDA receptor; pKi returned: 6.15

Query COc1ccc(Cc2cccc(-c3c(O)c4ccc(Cl)cc4[nH]c3=O)c2)cc1 on Glutamate NMDA receptor; pKi returned: 8.29

Query COc1cccc(-c2c(O)c3c(N(C)C)cc(Cl)cc3[nH]c2=O)c1 on Glutamate NMDA receptor; pKi returned: 6.25

Query CCc1cc(Cl)cc2[nH]c(=O)c(-c3cccc(N(C)C)c3)c(O)c12 on Glutamate NMDA receptor; pKi returned: 7.46

Query COc1cccc(-c2c(O)c3c(N)cc(Cl)cc3[nH]c2=O)c1 on Glutamate NMDA receptor; pKi returned: 6.92

====

# System: Cerebellum
# experiment: Biodistribution in ddY mouse cerebellum assessed per gram of tissue at 7.4 MBq, iv after 30 mins by gamma counting
# Assay type: ADME, organism-based
# assay-conditions: in vivo, 0.5 h
observation-type: Drug uptake (%ID/g)
Report the value in %ID/g with no unit label.

| test-smiles | value-units | test-result |
| --- | --- | --- |
| [11CH3]Nc1ccc(Cc2cccc(-c3c(O)c4ccc(Cl)cc4[nH]c3=O)c2)cc1 | %ID/g | 0.23 |
| CCc1cc(Cl)cc2[nH]c(=O)c(-c3cccc(O[11CH3])c3)c(O)c12 | %ID/g | 0.44 |

Query [11CH3]Oc1ccc(Cc2cccc(-c3c(O)c4ccc(Cl)cc4[nH]c3=O)c2)cc1 on Cerebellum; Drug uptake returned: 0.24

Query CCc1cc(Cl)cc2[nH]c(=O)c(-c3cccc(N[11CH3])c3)c(O)c12 on Cerebellum; Drug uptake returned: 0.53

====

# experiment: Metabolic stability in ddY mouse brain at 7.4 MBq, iv after 30 mins by radio-TLC analysis
# Type: ADME, organism-based
# assay-conditions: 40 MBq, in the assay text read “40 MBq” for “7.4 MBq”, read-out: Activity
observation-type: remaining at 0.5 h
Please answer using the number first and the unit second.

For CCc1cc(Cl)cc2[nH]c(=O)c(-c3cccc(N[11CH3])c3)c(O)c12 the molecule record lists remaining at 0.5 h as 70%

====

# experiment: Ratio of drug level in cerebellum to blood of mouse at 7.4 MBq, iv after 1 min
# Type: ADME, organism-based
observation-type: Kp at 1 min
Format: numeric value only, no unit, no commentary.

For [11CH3]Oc1ccc(Cc2cccc(-c3c(O)c4ccc(Cl)cc4[nH]c3=O)c2)cc1 the compound record lists Kp at 1 min as 0.043
